Values were extracted from the supplement of paper PMC10065799.

- EXPERIMENTAL_SYSTEM: Fes (UniProt P07332)
- Sequence (P07332 whole entry, looked up): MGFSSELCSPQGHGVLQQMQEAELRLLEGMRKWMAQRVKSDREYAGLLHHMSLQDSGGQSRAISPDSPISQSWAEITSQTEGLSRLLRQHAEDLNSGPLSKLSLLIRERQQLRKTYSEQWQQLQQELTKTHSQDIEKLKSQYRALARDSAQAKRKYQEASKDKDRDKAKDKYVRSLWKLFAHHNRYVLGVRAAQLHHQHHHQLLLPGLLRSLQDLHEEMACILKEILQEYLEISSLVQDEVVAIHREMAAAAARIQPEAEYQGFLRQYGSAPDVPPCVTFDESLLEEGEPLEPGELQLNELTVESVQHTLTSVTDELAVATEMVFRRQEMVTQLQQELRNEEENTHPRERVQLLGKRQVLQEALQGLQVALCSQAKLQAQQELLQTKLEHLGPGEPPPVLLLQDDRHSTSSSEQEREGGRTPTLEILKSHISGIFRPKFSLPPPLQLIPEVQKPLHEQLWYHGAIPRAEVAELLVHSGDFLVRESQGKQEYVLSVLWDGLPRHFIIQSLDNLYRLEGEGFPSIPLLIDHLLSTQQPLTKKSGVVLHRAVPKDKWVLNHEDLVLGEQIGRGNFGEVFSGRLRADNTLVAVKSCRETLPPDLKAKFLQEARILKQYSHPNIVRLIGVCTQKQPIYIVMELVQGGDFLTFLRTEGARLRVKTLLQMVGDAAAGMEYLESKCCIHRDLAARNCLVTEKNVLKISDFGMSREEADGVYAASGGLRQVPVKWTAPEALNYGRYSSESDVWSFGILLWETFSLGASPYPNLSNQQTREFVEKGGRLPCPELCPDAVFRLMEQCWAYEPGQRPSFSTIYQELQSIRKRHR
- ASSAY_REMARKS: phosphorylation enrichment, bacterial display (enrichment ratio); higher = better substrate or ligand; peptides without Tyr show the background;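 note: 11-residue human phosphosite peptides and single-mutation variants displayed on the E. coli surface, counted by deep sequencing, each peptide's frequency after selection divided by its frequency in the unselected input library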;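 note: frequency after pTyr selection over input frequency; kinase dosed for 20-30% of maximal phosphorylation in three min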
Label true (1) when phosphorylation enrichment is at or above 0.9; anything below gets false (0).

1) FVSSFYHAFSG [ACTN4_Y265_YF] :: true (1)
2) NTPNAYLRVNV [ADD2_Y440_T439A] :: true (1)
3) LERFIYNREEL [HLA-DPB1_Y59_F64L_YF] :: true (1)
4) ITNHIYTWVDP [DFNB31_Y234_V229I] :: true (1)

Please check the record FFVVEYRDQKP [MUC17_Y4332_YF] and state if its phosphorylation enrichment is at or above 0.9.
true (1)

hey, is phosphorylation enrichment for this one >= 0.9? LNGDRYFKGIV [DCX_Y64_R59L]
true (1)

Evaluate FSKTQYNQVPS [CXADR_Y318_YF] : phosphorylation enrichment at minimum 0.9?
false (0)

Assess whether reported phosphorylation enrichment for EEGENYQKGEQ [CHGB_Y173_R178Q] sits at 0.9 or higher.
true (1)
